Target: MC4-R (Homo sapiens, UniProt P32245)
Construct: expressed in transfected cells; host or cells: HEK-293
Sequence (P32245 whole entry): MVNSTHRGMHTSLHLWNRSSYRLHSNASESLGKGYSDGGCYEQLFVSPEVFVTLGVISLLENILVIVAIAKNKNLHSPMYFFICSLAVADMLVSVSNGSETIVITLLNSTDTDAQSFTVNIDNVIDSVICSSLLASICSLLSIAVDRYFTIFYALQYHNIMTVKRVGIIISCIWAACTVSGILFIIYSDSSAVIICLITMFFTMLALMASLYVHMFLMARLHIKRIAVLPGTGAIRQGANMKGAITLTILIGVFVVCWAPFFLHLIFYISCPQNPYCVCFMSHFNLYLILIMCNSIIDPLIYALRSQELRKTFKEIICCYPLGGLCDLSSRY
Assay: Competitive inhibition binding assay using [I125]-NDP-α-MSH, hMC4-R
Conditions: radioligand [I125]-NDP-α-MSH, HEK-293 membranes; read-out: Ki (NDP-α-MSH) MC4-R
Where a SMILES comes first, the peptide text is derived from it. Bridges are numbered along the chain shown (N, C = ends). [ ]: non-standard residue; d: D form. 1Nal = N[C@@H](Cc1cccc2ccccc12)C(=O)O

| COMPOUND | MEASURED TARGET | UNIT LABEL | Ki |
| --- | --- | --- | --- |
| CCCC[C@H](NC(C)=O)C(=O)N[C@H]1CC(=O)NCCCC[C@@H](C(=O)NCC)NC(=O)[C@H](Cc2c[nH]c3ccccc23)NC(=O)[C@H](CCCNC(=N)N)NC(=O)[C@@H](Cc2ccccc2)NC(=O)[C@H](Cc2c[nH]cn2)NC1=O | MC4-R (Homo sapiens, UniProt P32245) | nM | 0.34 |
| CC(=O)N[C@H]1CC(=O)NCCCC[C@@H](C(=O)N(C)C)NC(=O)[C@H](Cc2c[nH]c3ccccc23)NC(=O)[C@H](CCCNC(=N)N)NC(=O)[C@@H](Cc2ccccc2)NC(=O)[C@H](Cc2c[nH]cn2)NC1=O | MC4-R (Homo sapiens, UniProt P32245) | nM | 12 |
| CCNC(=O)[C@@H]1CCCCNC(=O)C[C@H](NC(C)=O)C(=O)N[C@@H](Cc2c[nH]c3ccccc23)C(=O)N[C@H](Cc2ccccc2)C(=O)N[C@@H](CCCNC(=N)N)C(=O)N[C@@H](Cc2cccc3ccccc23)C(=O)N1 [Example 14] (Ac-DW[dF]R[1Nal]K-NHEt; lactam 1-6 (inferred)) | MC4-R (Homo sapiens, UniProt P32245) | nM | 45 |
| CCCC[C@H](NC(C)=O)C(=O)N[C@H]1CC(=O)NCCCC[C@@H](C(=O)N(C)C)NC(=O)[C@H](Cc2c[nH]c3ccccc23)NC(=O)[C@H](CCCNC(=N)N)NC(=O)[C@@H](Cc2ccccc2)NC(=O)[C@H](Cc2c[nH]cn2)NC1=O | MC4-R (Homo sapiens, UniProt P32245) | nM | 0.27 |
| CCNC(=O)[C@@H]1CCCCNC(=O)C[C@H](NC(C)=O)C(=O)N[C@@H](Cc2c[nH]cn2)C(=O)N[C@H](Cc2ccccc2)C(=O)N[C@@H](CCCNC(=N)N)C(=O)N[C@@H](Cc2cccc3ccccc23)C(=O)N1 [Example 16] (Ac-DH[dF]R[1Nal]K-NHEt; lactam 1-6 (inferred)) | MC4-R (Homo sapiens, UniProt P32245) | nM | 157 |
| CC(=O)N[C@H]1CC(=O)NCCCC[C@@H](C(=O)N(C)C)NC(=O)[C@H](Cc2cccc3ccccc23)NC(=O)[C@H](CCCNC(=N)N)NC(=O)[C@@H](Cc2ccccc2)NC(=O)[C@H](Cc2c[nH]cn2)NC1=O [Example 17] (Ac-DH[dF]R[1Nal]K-NMe2; lactam 1-6 (inferred)) | MC4-R (Homo sapiens, UniProt P32245) | nM | 92 |
| CC(=O)N[C@H]1CC(=O)NCCCC[C@@H](C(=O)N(C)C)NC(=O)[C@H](Cc2cccc3ccccc23)NC(=O)[C@H](CCCNC(=N)N)NC(=O)[C@@H](Cc2ccccc2)NC(=O)[C@H](Cc2c[nH]c3ccccc23)NC1=O [Example 15] (Ac-DW[dF]R[1Nal]K-NMe2; lactam 1-6 (inferred)) | MC4-R (Homo sapiens, UniProt P32245) | nM | 122 |

// provenance: patent US8247530B2
